Target: Signal transducer and activator of transcription 5A (Homo sapiens, UniProt P42229)
Sequence (P42229 whole entry): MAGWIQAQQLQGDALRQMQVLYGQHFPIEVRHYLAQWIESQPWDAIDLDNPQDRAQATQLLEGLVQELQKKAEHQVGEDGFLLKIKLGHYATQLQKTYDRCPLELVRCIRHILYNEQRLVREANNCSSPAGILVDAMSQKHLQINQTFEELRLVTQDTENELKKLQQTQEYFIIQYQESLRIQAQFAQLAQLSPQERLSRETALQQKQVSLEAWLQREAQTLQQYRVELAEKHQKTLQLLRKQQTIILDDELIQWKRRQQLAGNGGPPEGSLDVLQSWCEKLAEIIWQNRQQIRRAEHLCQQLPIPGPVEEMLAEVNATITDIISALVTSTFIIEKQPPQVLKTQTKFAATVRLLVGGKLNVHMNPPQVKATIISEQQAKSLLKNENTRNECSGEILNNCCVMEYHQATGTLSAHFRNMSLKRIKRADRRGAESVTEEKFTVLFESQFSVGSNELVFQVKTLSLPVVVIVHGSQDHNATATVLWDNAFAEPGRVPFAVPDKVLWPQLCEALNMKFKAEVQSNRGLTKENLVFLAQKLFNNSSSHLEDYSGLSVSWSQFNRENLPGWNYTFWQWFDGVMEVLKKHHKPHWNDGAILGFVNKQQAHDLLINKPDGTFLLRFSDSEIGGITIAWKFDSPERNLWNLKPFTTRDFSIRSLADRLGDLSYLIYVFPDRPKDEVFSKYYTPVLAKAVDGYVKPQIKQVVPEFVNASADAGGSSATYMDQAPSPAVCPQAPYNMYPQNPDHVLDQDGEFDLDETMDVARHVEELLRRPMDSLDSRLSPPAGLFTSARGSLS
Experiment: Inhibition of STAT5 (unknown origin)
pIC50: −log10 of the molar value.
measurement kind: pIC50

> print(dat)
                      smiles.structure                               system.name  reported
1  O=C(N/N=C/c1coc2ccccc2c1=O)c1cccnc1  Signal transducer and activator of transcription 5A (Homo sapiens, UniProt P42229)      4.33

----------
Test system: BaF3
Test: Cytotoxicity against mouse BAF3 cells expressing JAK2 V617F mutant after 48 hrs by CellTiterGlo assay
Type: functional, cell-based
Details: BaF3, 48 h
measurement kind: IC50

> print(dat)
                           smiles.structure  measurement.kind  reported
1  N#CC[C@H](C1CCCC1)n1cc(-c2ncnc3[nH]ccc23)cn1              IC50    126 nM

----------
Biological target: Signal transducer and activator of transcription 5A (Homo sapiens, UniProt P42229)
Experiment: Inhibition of STAT5 DNA binding activity in human K562 cells after 24 hrs by electrophoretic mobility shift assay
Type: cell-based
pIC50: −log10 of the molar value.
measurement kind: pIC50

> print(dat)
                           smiles.structure                               system.name  reported
1  Cc1cc(Nc2ncc3cc(-c4c(Cl)cccc4Cl)c(=O)n(C)c3n2)ccc1F  Signal transducer and activator of transcription 5A (Homo sapiens, UniProt P42229)      8.30

----------
Target: Tyrosine-protein kinase JAK2 (Mus musculus, UniProt Q62120, V617F)
Sequence (Q62120 as listed by the source V617F): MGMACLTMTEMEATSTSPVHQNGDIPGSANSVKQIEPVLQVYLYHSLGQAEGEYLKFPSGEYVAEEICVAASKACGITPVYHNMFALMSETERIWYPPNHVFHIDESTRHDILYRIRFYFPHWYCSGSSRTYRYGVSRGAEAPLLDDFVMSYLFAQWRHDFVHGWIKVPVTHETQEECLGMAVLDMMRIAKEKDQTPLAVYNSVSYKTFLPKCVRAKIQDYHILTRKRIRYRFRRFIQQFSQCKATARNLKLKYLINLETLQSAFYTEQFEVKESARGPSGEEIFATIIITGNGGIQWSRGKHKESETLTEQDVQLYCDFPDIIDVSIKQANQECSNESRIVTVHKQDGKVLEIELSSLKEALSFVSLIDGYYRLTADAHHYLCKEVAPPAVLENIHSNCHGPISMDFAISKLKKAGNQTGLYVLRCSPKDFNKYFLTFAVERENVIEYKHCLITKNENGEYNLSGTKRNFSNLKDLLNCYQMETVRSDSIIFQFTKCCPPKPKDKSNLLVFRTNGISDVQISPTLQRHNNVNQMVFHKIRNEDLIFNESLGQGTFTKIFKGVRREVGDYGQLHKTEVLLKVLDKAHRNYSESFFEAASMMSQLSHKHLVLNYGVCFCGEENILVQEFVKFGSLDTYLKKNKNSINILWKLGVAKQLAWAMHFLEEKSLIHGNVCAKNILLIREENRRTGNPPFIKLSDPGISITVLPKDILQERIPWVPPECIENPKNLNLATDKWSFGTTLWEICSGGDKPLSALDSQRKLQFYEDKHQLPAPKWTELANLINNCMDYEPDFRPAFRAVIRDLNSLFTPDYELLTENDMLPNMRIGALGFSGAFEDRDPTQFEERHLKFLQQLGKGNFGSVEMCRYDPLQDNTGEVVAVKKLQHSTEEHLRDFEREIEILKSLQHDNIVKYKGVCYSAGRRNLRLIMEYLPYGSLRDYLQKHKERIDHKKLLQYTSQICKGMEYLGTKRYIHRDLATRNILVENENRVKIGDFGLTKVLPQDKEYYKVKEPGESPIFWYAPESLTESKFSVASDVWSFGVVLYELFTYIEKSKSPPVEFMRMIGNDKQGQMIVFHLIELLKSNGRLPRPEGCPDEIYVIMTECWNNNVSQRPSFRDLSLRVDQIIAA
Assay: Inhibition of JAK2 V617F mutant in mouse BAF3 cells
measurement kind: IC50

> print(dat)
                           smiles.structure  reported
1  N#CCNC(=O)c1ccc(-c2ccnc(Nc3ccc(N4CCOCC4)cc3)n2)cc1   1500 nM

----------
Target: Signal transducer and activator of transcription 3 (Homo sapiens, UniProt P40763)
Sequence (P40763 whole entry): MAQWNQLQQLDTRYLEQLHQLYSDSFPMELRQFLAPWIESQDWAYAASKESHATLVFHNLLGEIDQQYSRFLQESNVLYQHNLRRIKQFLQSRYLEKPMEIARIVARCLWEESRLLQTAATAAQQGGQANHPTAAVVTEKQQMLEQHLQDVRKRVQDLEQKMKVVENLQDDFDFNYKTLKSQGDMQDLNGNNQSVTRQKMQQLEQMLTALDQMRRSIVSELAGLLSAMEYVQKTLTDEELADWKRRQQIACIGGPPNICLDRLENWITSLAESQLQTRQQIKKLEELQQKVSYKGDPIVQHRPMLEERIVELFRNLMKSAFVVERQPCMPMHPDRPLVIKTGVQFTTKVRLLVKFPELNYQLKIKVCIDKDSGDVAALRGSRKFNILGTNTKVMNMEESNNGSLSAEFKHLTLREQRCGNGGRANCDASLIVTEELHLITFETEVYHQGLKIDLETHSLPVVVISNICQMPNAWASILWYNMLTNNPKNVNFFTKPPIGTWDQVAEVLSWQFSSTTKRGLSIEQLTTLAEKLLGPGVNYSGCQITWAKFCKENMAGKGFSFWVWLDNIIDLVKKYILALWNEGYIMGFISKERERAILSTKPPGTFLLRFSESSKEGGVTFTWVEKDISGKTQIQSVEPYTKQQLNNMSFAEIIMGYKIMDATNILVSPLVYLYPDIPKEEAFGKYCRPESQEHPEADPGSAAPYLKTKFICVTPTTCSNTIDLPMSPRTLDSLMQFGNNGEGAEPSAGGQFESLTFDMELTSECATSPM
measurement kind: IC50

> print(dat)
                      smiles.structure  reported
1  O=C(N/N=C/c1coc2ccccc2c1=O)c1cccnc1    180 µM
